Source of measurements: PubChem BioAssay

ASSAY_INFO: plasmodial surface anion channel blockers, osmotic lysis – cell-based, P. falciparum Indochina, OD700, 2 h, primary screen (AID 1155);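 note: lysis reports solute entry through the parasite surface anion channel PSAC; channel blockers reduce lysis of infected cells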
MEASUREMENT_PARAMETERS: P. falciparum Indochina infected erythrocytes, higher = more signal, called active from +8 up or from −8 down
Examples of molecules with documented z-score follow.
REPORTED_METRIC: z-score

> print(dat)
                                   molecule  reading
1  Cc1ccccc1C(O)C1C=CC2C(=O)N(Cc3ccccc3)C(=O)C2N1n1cnnc1 (centres undefined)      1.2
2  C=CC[C@@]1(C(=O)NCC(O)CO)N=C(c2ccc(OCCCO)cc2)O[C@@H]1c1ccccc1 (some centres undefined)     4.36
3  CCCN1C(=O)[C@@H]2Cc3c([nH]c4ccccc34)[C@@H](c3cccc(O)c3)N2C1=O   -0.108
4  COC(=O)[C@@]1(Cc2ccc(F)cc2)[C@H]2c3cc(C(=O)N(C)C)n(CCSCCO)c3C[C@H]2CN1C(=O)c1ccccc1   -0.383

---

Tested on: PRMT1 (protein arginine N-methyltransferase 1)
ASSAY_INFO: small molecules binding arginine methyltransferase PRMT1 – biochemical, small-molecule microarray, 635 nm fluorescence, primary screen (AID 1088);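 note: binding of Prmt1 protein to compounds spotted on small-molecule microarray slides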
MEASUREMENT_PARAMETERS: higher = more signal
REPORTED_METRIC: composite z-score

COMPOUND	REPORTED_METRIC	READING
O=C1c2ccccc2[C@](Cc2ccccc2I)(C(=O)NCC(F)(F)F)[C@H](c2ccc(CO)cc2)N1Cc1ccccc1	composite z-score	1.55
CCCCC(O)C1C=CC2C(=O)N(Cc3ccccc3)C(=O)C2N1n1cnnc1 (stereo unspecified)	composite z-score	0.623
O=C1C2C=CC(C(O)c3ccc(Br)cc3)N(Nc3ccccc3)C2C(=O)N1c1ccccc1 (stereo unspecified)	composite z-score	0.826
CC1CC/C=C\[C@H]2OC34C=CCN(Cc5ccccc5)C(=O)[C@H]3N(CCO)C(=O)[C@@H]4C2C(=O)O1 (stereo partly specified)	composite z-score	0.205
CCC[C@@H]1C[C@@]1(CCC)[C@@H](NC(=O)c1ccco1)c1ccc(Cl)cc1	composite z-score	-1.25
O=C1C[C@@](C(=O)NCc2ccccc2)(c2ccc([N+](=O)[O-])cc2)[C@@H](c2ccc(CO)cc2I)N1C1CCCCC1	composite z-score	1.55
COCCCNC(=O)[C@]1(Cc2ccccc2)N=C(c2ccc(OCCCO)cc2)O[C@@H]1c1ccccc1N=[N+]=[N-]	composite z-score	1.56
CCCCC(CC)C(O)C1C=CC2C(=O)NC(=O)C2N1Nc1ccccn1 (stereo unspecified)	composite z-score	1.34
COc1ccc(C(=O)Nc2ccc(CN3C(=O)[C@]4(O[C@H](CCn5cc([C@H](O)c6ccccc6)nn5)[C@@H]([Si](C)(C)c5ccc(OC)cc5)[C@@H]4C)c4ccccc43)cc2)cc1	composite z-score	0.466
COc1ccc(C(=O)Nc2ccc(CN3C(=O)[C@@]4(O[C@@H](CC(=O)N5Cc6ccccc6C[C@H]5CO)[C@H]([Si](C)(C)c5ccc(OC)cc5)[C@H]4C)c4ccccc43)cc2)cc1	composite z-score	1.51
NCCCCCCNC(=O)[C@H]1C[C@H]2C(=O)N3CCC[C@H]3C(=O)N2[C@H]1c1ccc(O)cc1	composite z-score	1.29
C#CCNS(=O)(=O)N(C)C	composite z-score	0.392
CO[C@H]1O[C@H](CO)[C@@H](OC(=O)Nc2ccc(C(F)(F)F)cc2)[C@H](OC(=O)Nc2ccccc2)[C@H]1OC(=O)Nc1ccccc1	composite z-score	1.53
C[C@]12C(=O)N(CCCCCO)[C@@H]3C(=O)N(c4ccc(Cl)cc4)CC=CC31O[C@@H]1/C=C\CCCOC(=O)C12 (stereo partly specified)	composite z-score	-1.37
CC(C)(C)OC(=O)CC[C@]1(C(=O)N2CCCCC2)N=C(c2ccc(OCCCO)cc2)O[C@H]1c1ccccc1CN=[N+]=[N-]	composite z-score	1.54
COC(=O)[C@@]1(Cc2ccc(F)cc2)[C@H]2c3cc(C(=O)N4CCCC4)n(Cc4ccccc4)c3C[C@H]2CN1C(=O)c1ccccc1	composite z-score	-0.101

---

Tested on: Noggin (protein binding on small-molecule microarray)
ASSAY_INFO: small molecules binding Noggin protein – biochemical, 635/667 nm fluorescence, primary screen (AID 1095);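 note: score merges 667 nm feature fluorescence with signal to noise over triplicate slides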
MEASUREMENT_PARAMETERS: 635 nm fluorescence, higher = more signal
Please use t whenever composite z-score is not below 0.4, and f whenever it is.

COMPOUND	TESTED_TARGET	LABEL_VALUE
C=CCOC(=O)[C@@H]1[C@H]2C(=O)O[C@H](c3ccccc3)[C@H](c3ccccc3)N2[C@H](c2ccc(OCCOC(=O)[C@@H]3C[C@@H]4C(=O)N5CCC[C@H]5C(=O)N4[C@@H]3c3cccc(OCCO)c3)cc2)[C@@]12C(=O)Nc1ccc(I)cc12	Noggin (protein binding on small-molecule microarray)	t
O=C(Nc1cc(Br)ccc1C(=O)NCc1cccc(O)c1)c1ccccc1	Noggin (protein binding on small-molecule microarray)	f
[N-]=[N+]=NCc1ccccc1[C@H]1OC(c2ccc(OCCCO)cc2)=N[C@@]1(Cc1ccccc1)C(N)=O	Noggin (protein binding on small-molecule microarray)	t
C=CCOC(=O)[C@H]1[C@@H]2C(=O)O[C@@H](c3ccccc3)[C@@H](c3ccccc3)N2[C@@H](c2ccc(OCCOC(=O)[C@H]3C[C@H]4C(=O)N[C@@H](CCCCN(C)C)C(=O)N4[C@H]3c3ccc(O)cc3)cc2)[C@]12C(=O)Nc1ccccc12	Noggin (protein binding on small-molecule microarray)	t
C=C(CCCC)/C(=C/C[C@@H](OC(=O)c1ccncc1)c1ccccc1OCCO)c1cc(C(=O)OC)ccc1OC	Noggin (protein binding on small-molecule microarray)	t
CC(C)[Si](C#C[Si](C(C)C)(C(C)C)C(C)C)(O[C@H](C)c1cn(Cc2cccc(Cl)c2)nn1)C(C)C	Noggin (protein binding on small-molecule microarray)	t
COCCOC(=O)N1C(=O)[C@@]2(c3cc(C#Cc4ccc(OC)cc4)ccc31)[C@H](C(=O)N1CCc3cc(OC)c(OC)cc3C1)[C@H]1C(=O)O[C@H](c3ccccc3)[C@H](c3ccccc3)N1[C@@H]2c1ccc(OCCO)cc1	Noggin (protein binding on small-molecule microarray)	t
COCCCNC(=O)[C@]1(CCS(=O)(=O)c2ccccc2)N=C(c2ccc(OCCCO)cc2)O[C@@H]1c1ccccc1	Noggin (protein binding on small-molecule microarray)	t
C/C=C/[C@@H](CCn1cc([C@H](O)c2ccccc2)nn1)[Si](C)(C)c1ccc(OC)cc1	Noggin (protein binding on small-molecule microarray)	f
COc1cc(C(O)C2C=CC3C(=O)NC(=O)C3N2Nc2ccc(Cl)cc2Cl)cc(OC)c1OC (stereo not drawn)	Noggin (protein binding on small-molecule microarray)	f
Cc1ccc(S[C@]2(C(=O)NCCN3CCOCC3)CC(=O)N(C3Cc4ccccc4C3)[C@@H]2c2ccc(CO)cc2)cc1	Noggin (protein binding on small-molecule microarray)	f
C[C@]12C(=O)N(CCCO)[C@@H]3C(=O)N(c4ccc(Cl)cc4)CC=CC31O[C@@H]1/C=C\CCCOC(=O)C12 (stereo partly drawn)	Noggin (protein binding on small-molecule microarray)	f
C=CCOC(=O)[C@@H]1[C@H]2C(=O)O[C@H](c3ccccc3)[C@H](c3ccccc3)N2[C@H](c2ccc(OCCOC(=O)[C@@H]3C[C@@H]4C(=O)N[C@@H](CCCCNC(C)=O)C(=O)N4[C@@H]3c3ccc(O)cc3)cc2)[C@@]12C(=O)Nc1ccc(I)cc12	Noggin (protein binding on small-molecule microarray)	t

---

ASSAY_INFO: change in splice reporter luminescence, either direction, cell-based, HEK293, spliceosome inhibition project, primary screen (AID 1101);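 note: HEK293 cells carrying a splicing-competent luciferase reporter gene; test concentration not given here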
MEASUREMENT_PARAMETERS: HEK293 splicing luciferase reporter, 24 h, higher = more signal, called active from +8 up or from −8 down
Please use YES whenever z-score is not below -0.3, and NO whenever it is.

MOLECULE	LABEL_VALUE
[N-]=[N+]=NCc1ccccc1C[C@]1(C(=O)NCCN2CCOCC2)N=C(c2ccc(OCCCO)cc2)O[C@H]1c1ccccc1	NO
COc1ccc([Si](C)(C)[C@@H]2[C@@H](CCO)O[C@]3(C(=O)N(Cc4ccccc4)c4ccc(N5C(=O)COc6ccccc65)cc43)[C@H]2C)cc1	NO
C=C[C@@H](O)[C@H]1CC(c2ccccc2)=NO1	YES
CCCCCCCCCCC(O)C1C=CC2C(=O)NC(=O)C2N1Nc1ccccn1 (stereo not drawn)	YES
CCCCC(=C=CC[C@H](O)c1cccc(OCCO)c1)C[C@H](O)COCc1ccccc1	NO
COc1cc2c(cc1OC)CN(C(=O)[C@@H]1[C@H]3C(=O)O[C@H](c4ccccc4)[C@H](c4ccccc4)N3[C@H](c3ccc(O)cc3)[C@@]13C(=O)Nc1ccc(C#CCNC(N)=O)cc13)CC2	YES
COc1ccc([Si](C)(C)[C@@H]2[C@@H](CCO)O[C@]3(C(=O)N(Cc4cccc(N5C(=O)COc6ccccc65)c4)c4ccccc43)[C@H]2C)cc1	NO
